Data provenance is ChEMBL document CHEMBL3612011.

The next entries give measured pKi for Mu-type opioid receptor (Cavia porcellus).
pKi: −log10 of the molar value.

{"Molecule": "CN(C(=O)Cc1ccccc1)[C@H]1C[C@@]23CCN(CC4CC4)[C@H]4CCC1C[C@]42Cc1ccc(O)cc13 (single isomer, unassigned)", "Target Under Test": "Mu-type opioid receptor (Cavia porcellus)", "pKi": 7.22}
{"Molecule": "CN(C(=O)/C=C/c1ccoc1)[C@H]1C[C@@]23CCN(CC4CC4)[C@H]4C=C[C@@H]1C[C@]42Cc1ccc(O)cc13.Cl", "Target Under Test": "Mu-type opioid receptor (Cavia porcellus)", "pKi": 7.86}
{"Molecule": "CN(C(=O)CCc1ccccc1)[C@@H]1C[C@@]23CCN(CC4CC4)[C@H]4CCC1C[C@]42Cc1ccc(O)cc13 (single isomer, unassigned)", "Target Under Test": "Mu-type opioid receptor (Cavia porcellus)", "pKi": 9.64}
{"Molecule": "CN(C(=O)/C=C/c1ccoc1)[C@@H]1C[C@@]23CCN(CC4CC4)[C@H]4C=C[C@@H]1C[C@]42Cc1ccc(O)cc13", "Target Under Test": "Mu-type opioid receptor (Cavia porcellus)", "pKi": 9.24}
{"Molecule": "CN(C(=O)CCc1ccccc1)[C@H]1C[C@@]23CCN(CC4CC4)[C@H]4C=C[C@@H]1C[C@]42Cc1ccc(O)cc13", "Target Under Test": "Mu-type opioid receptor (Cavia porcellus)", "pKi": 8.36}
{"Molecule": "CN(C(=O)/C=C/c1ccoc1)[C@@H]1C[C@@]23CCN(CC4CC4)[C@H]4CC[C@@H]1C[C@]42Cc1ccc(O)cc13", "Target Under Test": "Mu-type opioid receptor (Cavia porcellus)", "pKi": 9.63}
{"Molecule": "CN(C(=O)c1ccccc1)[C@H]1C[C@@]23CCN(CC4CC4)[C@H]4C=C[C@@H]1C[C@]42Cc1ccc(O)cc13", "Target Under Test": "Mu-type opioid receptor (Cavia porcellus)", "pKi": 7.32}
{"Molecule": "CN(C(=O)/C=C/c1ccoc1)[C@H]1C[C@@]23CCN(CC4CC4)[C@H]4CC[C@@H]1C[C@]42Cc1ccc(O)cc13", "Target Under Test": "Mu-type opioid receptor (Cavia porcellus)", "pKi": 7.32}
{"Molecule": "CN(C(=O)Cc1ccccc1)[C@@H]1C[C@@]23CCN(CC4CC4)[C@H]4C=C[C@@H]1C[C@]42Cc1ccc(O)cc13", "Target Under Test": "Mu-type opioid receptor (Cavia porcellus)", "pKi": 9.38}
{"Molecule": "CN(C(=O)c1ccccc1)[C@H]1C[C@@]23CCN(CC4CC4)[C@H]4CCC1C[C@]42Cc1ccc(O)cc13 (single isomer, unassigned)", "Target Under Test": "Mu-type opioid receptor (Cavia porcellus)", "pKi": 7.25}

----------
Organism: Mus musculus
Assay: Selectivity index, ratio of Ki for DOR in mouse whole brain membranes without cerebellum to Ki for KOR in mouse whole brain membranes without cerebellum
Format: cell membranes
Threshold check on Ratio Ki: at or above 2 gives y, strictly below gives n.

{"Compound": "CN(C(=O)CCc1ccccc1)[C@@H]1C[C@@]23CCN(CC4CC4)[C@H]4CCC1C[C@]42Cc1ccc(O)cc13 (single isomer, unassigned)", "Assigned Label": "y"}
{"Compound": "CN(C(=O)c1ccccc1)[C@@H]1C[C@@]23CCN(CC4CC4)[C@H]4C=C[C@@H]1C[C@]42Cc1ccc(O)cc13", "Assigned Label": "n"}
{"Compound": "CN(C(=O)CCc1ccccc1)[C@H]1C[C@@]23CCN(CC4CC4)[C@H]4C=C[C@@H]1C[C@]42Cc1ccc(O)cc13", "Assigned Label": "y"}
{"Compound": "CN(C(=O)Cc1ccccc1)[C@H]1C[C@@]23CCN(CC4CC4)[C@H]4CCC1C[C@]42Cc1ccc(O)cc13 (single isomer, unassigned)", "Assigned Label": "n"}
{"Compound": "CN(C(=O)c1ccccc1)[C@H]1C[C@@]23CCN(CC4CC4)[C@H]4C=C[C@@H]1C[C@]42Cc1ccc(O)cc13", "Assigned Label": "n"}
{"Compound": "CN(C(=O)c1ccccc1)[C@@H]1C[C@@]23CCN(CC4CC4)[C@H]4CCC1C[C@]42Cc1ccc(O)cc13 (single isomer, unassigned)", "Assigned Label": "y"}
{"Compound": "CN(C(=O)/C=C/c1ccoc1)[C@H]1C[C@@]23CCN(CC4CC4)[C@H]4C=C[C@@H]1C[C@]42Cc1ccc(O)cc13.Cl", "Assigned Label": "y"}
{"Compound": "CN(C(=O)/C=C/c1ccoc1)[C@@H]1C[C@@]23CCN(CC4CC4)[C@H]4C=C[C@@H]1C[C@]42Cc1ccc(O)cc13", "Assigned Label": "y"}
{"Compound": "CN(C(=O)/C=C/c1ccoc1)[C@H]1C[C@@]23CCN(CC4CC4)[C@H]4CC[C@@H]1C[C@]42Cc1ccc(O)cc13", "Assigned Label": "y"}
{"Compound": "CN(C(=O)CCc1ccccc1)[C@@H]1C[C@@]23CCN(CC4CC4)[C@H]4C=C[C@@H]1C[C@]42Cc1ccc(O)cc13", "Assigned Label": "y"}
